Test: in vitro
Details: human, hela cells, % viability
Parameter: viability at 28.5 h, 10 µM (%)
One number for each entry, in %.

Below are worked cases with known answers.
| Compound | viability at 28.5 h, 10 µM / % |
| --- | --- |
| CCn1c(CNC(=O)C(C)Cn2cc(Cl)cn2)nc2ccccc21 (centres unmarked) | 91.9 |
| CSCCC(NS(=O)(=O)c1ccc(I)cc1)C(=O)O (centres unmarked) | 98.6 |
| CCOc1cc(NC2CCN(C(=O)CC3(O)CCCCC3)CC2)ncn1 | 81.6 |
| CO/N=C\c1c(CO)cnc(C)c1O | 98.4 |

# evaluate next
Inquiry: What value of viability at 28.5 h, 10 µM has been recorded for this entry: Cc1ccc(CN(CCN(C)C)Cc2c(C)nc3sccn23)o1
Reply text: 116
